So I've got a bunch of compounds here, and I need their pEC50 values.
- Tested on: FLU A (PR/8/34)
- experimental_details: Flu A Neuraminidase Antiviral Assay
- Format: cell-based
pEC50: −log10 of the molar value.

Exercise: Requested read-out: pEC50. Entry: CN1C(=O)c2c(O)c(=O)ccn2N2C1CCCC21CCCc2ccccc21 (single isomer, unassigned) [Compound 32A]
Key: < 5.09

Exercise: Could you do the same for CN1C(=O)c2c(O)c(=O)ccn2N2C1CCC1(CCCC(F)(F)C1)C2c1ccccc1 (single isomer, unassigned) [Compound 75B] , please?
Key: 8.10

Exercise: Could you do the same for CCN1C(=O)c2c(O)c(=O)ccn2N2C1CCCC2(C)c1cccc(C)n1 (single isomer, unassigned) [Compound 53A] , please?
Key: < 6.09

* * *

- Test system: FLU A (PR/8/34)
- experimental_details: Flu A Neuraminidase Antiviral Assay
- Assay type: cell-based
readout_kind: pEC50
Keep it numeric: pEC50 is minus log10 of the concentration in mol/L.

Exercise: Query for FLU A (PR/8/34): what pEC50 does the record show for CN1C(=O)c2c(O)c(=O)ccn2N2C(c3ccccc3)C3CCC(C3)C12 (single isomer, unassigned) [Compound 9B] ?
Key: 6.78

Exercise: Could you do the same for CCN1C(=O)c2c(O)c(=O)ccn2N2C(c3ccccc3C)C(CCC(F)F)CCC12 (single isomer, unassigned) [Compound 102A] , please?
Key: 8.54

Exercise: Could you do the same for CN1C(=O)c2c(O)c(=O)ccn2N2C1CCC(C)(C)C2(C)c1ccccc1 (single isomer, unassigned) [Compound 35A] , please?
Key: 6.86

Exercise: Could you do the same for CN1C(=O)c2c(O)c(=O)ccn2N2C(c3ccccc3Cl)C(CC(F)(F)F)CCC12 (single isomer, unassigned) [Compound 119B] , please?
Key: 8.57

Exercise: Could you do the same for CN1C(=O)c2c(O)c(=O)ccn2N2C(c3c(F)cccc3F)C(CC(F)(F)F)CCC12 (single isomer, unassigned) [Compound 123B] , please?
Key: 8.38

Exercise: Could you do the same for CCN1C(=O)c2c(O)c(=O)ccn2N2C(c3ccccc3Br)C(CC(F)(F)F)CCC12 (single isomer, unassigned) [Compound 106A] , please?
Key: 8.19

* * *

- Test system: FLU A (PR/8/34)
- experimental_details: Flu A Neuraminidase Antiviral Assay
- Type: cell-based
readout_kind: pEC50
Keep it numeric: pEC50 is minus log10 of the concentration in mol/L.

Exercise: Requested read-out: pEC50. Entry: CN1C(=O)c2c(O)c(=O)ccn2N2C(c3ccccc3)C(c3cc(F)c(F)cc3F)CCC12 (single isomer, unassigned) [Compound 86A]
Key: 8.37

Exercise: Could you do the same for CN1C(=O)c2c(O)c(=O)ccn2N2C(c3ccccc3C3CC3)C(CC(F)(F)F)CCC12 (single isomer, unassigned) [Compound 107B] , please?
Key: 7.84

Exercise: Could you do the same for CN1C(=O)c2c(O)c(=O)ccn2N2C1CCC1(CC(F)(F)C1)C2c1ccccc1 (single isomer, unassigned) [Compound 74D] , please?
Key: 6.35

Exercise: Could you do the same for CN1C(=O)c2c(O)c(=O)ccn2N2C1CCCC2(C)c1ccc(F)cc1 (single isomer, unassigned) [Compound 26A] , please?
Key: 8.08

Exercise: Could you do the same for CN1C(=O)c2c(O)c(=O)ccn2N2C(c3ccccc3)C(CCC3CC3)CCC12 (single isomer, unassigned) [Compound 115D] , please?
Key: 8.16

Exercise: Could you do the same for CC1(c2ccccc2)CCCC2N(CC3CC3)C(=O)c3c(O)c(=O)ccn3N21 (single isomer, unassigned) [Compound 37B] , please?
Key: 5.91

Exercise: Could you do the same for CN1C(=O)c2c(O)c(=O)ccn2N2C1CCCC2(C)c1ccccn1 (single isomer, unassigned) [Compound 30A] , please?
Key: 7.78

Exercise: Could you do the same for CN1C(=O)c2c(O)c(=O)ccn2N2C(c3ccccc3)C(CC(C)(F)F)CCC12 (single isomer, unassigned) [Compound 126B] , please?
Key: 7.79

Exercise: Could you do the same for Cc1ccccc1C1N2C(CCC13CC1C(C3)C1(F)F)N(C)C(=O)c1c(O)c(=O)ccn12 (single isomer, unassigned) [Compound 69C] , please?
Key: 7.05

Exercise: Could you do the same for Cc1cccnc1C1(C)CCCC2N(CC(F)(F)F)C(=O)c3c(O)c(=O)ccn3N21 (single isomer, unassigned) [Compound 44B] , please?
Key: 7.82

* * *

- Test system: FLU A (PR/8/34)
- experimental_details: Flu A Neuraminidase Antiviral Assay
- Assay type: cell-based
So I've got a bunch of molecules here, and I need their pEC50 values.
Keep it numeric: pEC50 is minus log10 of the concentration in mol/L.

Exercise: Requested read-out: pEC50. Entry: CC1CC2N(C)C(=O)c3c(O)c(=O)ccn3N2C(C)(c2ccccc2)C1 (single isomer, unassigned) [Compound 43B]
Key: 5.96

Exercise: Could you do the same for CN1C(=O)c2c(O)c(=O)ccn2N2C1CCCC2(C)c1cccc(F)c1 (single isomer, unassigned) [Compound 25A] , please?
Key: 8.46

Exercise: Could you do the same for CCN1C(=O)c2c(O)c(=O)ccn2N2C(c3ccccc3)C(C3(C(F)(F)F)CC3)CCC12 (single isomer, unassigned) [Compound 104A] , please?
Key: 8.10

Exercise: Could you do the same for CCN1C(=O)c2c(O)c(=O)ccn2N2C1CCCC2(C)c1ccccc1 (single isomer, unassigned) [Compound 36B] , please?
Key: 5.89

Exercise: Could you do the same for Cc1ccccc1C1C(CCC(F)F)CCC2N(C)C(=O)c3c(O)c(=O)ccn3N12 (single isomer, unassigned) [Compound 103B] , please?
Key: 8.28

Exercise: Could you do the same for CN1C(=O)c2c(O)c(=O)ccn2N2C1CCCC2(C)c1ncc(F)cc1F (single isomer, unassigned) [Compound 46A] , please?
Key: 7.39

Exercise: Could you do the same for CN1C(=O)c2c(O)c(=O)ccn2N2C1CCC2(C)c1ccccc1 (single isomer, unassigned) [Compound 61B] , please?
Key: 5.56

Exercise: Could you do the same for CN1C(=O)c2c(O)c(=O)ccn2N2C(c3cccc(Br)c3)C(CC(F)(F)F)CCC12 (single isomer, unassigned) [Compound 83B] , please?
Key: 8.66

Exercise: Could you do the same for CC1(c2ncc(F)cc2F)CCCC2N(CC(F)F)C(=O)c3c(O)c(=O)ccn3N21 (single isomer, unassigned) [Compound 47B] , please?
Key: 5.36

Exercise: Could you do the same for CCN1C(=O)c2c(O)c(=O)ccn2N2C1CCC1(CCC(F)(F)CC1)C2c1ccccc1 (single isomer, unassigned) [Compound 76B] , please?
Key: 8.70

Exercise: Could you do the same for CN1C(=O)c2c(O)c(=O)ccn2N2C(c3ccccc3F)C(CC(F)F)CCC12 (single isomer, unassigned) [Compound 113B] , please?
Key: 8.14

Exercise: Could you do the same for CN1C(=O)c2c(O)c(=O)ccn2N2C1CCC1(CCC(C(F)(F)F)CC1)C2c1ccccc1 (single isomer, unassigned) [Compound 73D] , please?
Key: 8.18

Exercise: Could you do the same for Cc1ccccc1C1C(CCC(F)(F)F)CCC2N(C)C(=O)c3c(O)c(=O)ccn3N12 (single isomer, unassigned) [Compound 95A] , please?
Key: 6.86

Exercise: Could you do the same for O=C1c2c(O)c(=O)ccn2N2C(c3ccccc3)C(CC3(C(F)(F)F)CC3)CCC2N1CC1CC1 (single isomer, unassigned) [Compound 90A] , please?
Key: 6.11

Exercise: Could you do the same for CCCC1CCC2N(C)C(=O)c3c(O)c(=O)ccn3N2C1(C)c1ccccc1 (single isomer, unassigned) [Compound 33C] , please?
Key: 5.88

Exercise: Could you do the same for CN1C(=O)c2c(O)c(=O)ccn2N2C1CCCC2(C)c1c(F)cccc1F (single isomer, unassigned) [Compound 23B] , please?
Key: 8.59

Exercise: Could you do the same for Cc1ccc(C2(C)CCCC3N(CC(F)(F)F)C(=O)c4c(O)c(=O)ccn4N32)nc1 (single isomer, unassigned) [Compound 49B] , please?
Key: 7.58

Exercise: Could you do the same for CN1C(=O)c2c(O)c(=O)ccn2N2C(c3ccccc3)C(CC3CC3(F)F)CCC12 (single isomer, unassigned) [Compound 114D] , please?
Key: 8.64

* * *

- Test system: FLU A (PR/8/34)
- experimental_details: Flu A Neuraminidase Antiviral Assay
- Assay type: cell-based
So I've got a bunch of compounds here, and I need their log10 of EC50 values.
Please keep in mind that the values are log10 of EC50 expressed in nM.

Exercise: Requested read-out: log10 of EC50. Entry: CCc1ccccc1C1C(CC(F)(F)F)CCC2N(C)C(=O)c3c(O)c(=O)ccn3N12 (single isomer, unassigned) [Compound 112B]
Key: 2.21

Exercise: Could you do the same for CN1C(=O)c2c(O)c(=O)ccn2N2C(c3ccccc3Cl)C(CC(F)(F)F)CCC12 (single isomer, unassigned) [Compound 119A] , please?
Key: 3.49

Exercise: Could you do the same for CN1C(=O)c2c(O)c(=O)ccn2N2C(c3ccccc3)CCCC12C (single isomer, unassigned) [Compound 59B] , please?
Key: 1.08

Exercise: Could you do the same for CN1C(=O)c2c(O)c(=O)ccn2N2C(c3ccccc3Br)C(CC(F)(F)F)CCC12 (single isomer, unassigned) [Compound 89B] , please?
Key: 0.38

Exercise: Could you do the same for CCN1C(=O)c2c(O)c(=O)ccn2N2C(c3ccccc3)C(CCC(F)F)CCC12 (single isomer, unassigned) [Compound 110A] , please?
Key: 3.05

Exercise: Could you do the same for CN1C(=O)c2c(O)c(=O)ccn2N2C(c3ccccc3)C(CC(F)(F)F)CCC12C (single isomer, unassigned) [Compound 111B] , please?
Key: 0.52

Exercise: Could you do the same for CCOC1CCC2N(C)C(=O)c3c(O)c(=O)ccn3N2C1c1ccccc1 (centres unmarked) [Compound 152B] , please?
Key: 1.56

Exercise: Could you do the same for CN1C(=O)c2c(O)c(=O)ccn2N2C1CCCC2(C)c1ccc(F)cc1 (single isomer, unassigned) [Compound 26B] , please?
Key: 3.26

Exercise: Could you do the same for CN1C(=O)c2c(O)c(=O)ccn2N2C(c3ccccc3)C(O)CCC12 (centres unmarked) [Compound 136A] , please?
Key: 3.28

Exercise: Could you do the same for CCC1(c2ccccc2)CCCC2N(C)C(=O)c3c(O)c(=O)ccn3N21 (single isomer, unassigned) [Compound 22B] , please?
Key: 3.72

Exercise: Could you do the same for CN1C(=O)c2c(O)c(=O)ccn2N2C(c3cc(F)ccc3OC(F)F)CCCC12 (single isomer, unassigned) [Compound 17A] , please?
Key: 3.55

Exercise: Could you do the same for COc1ccccc1C1C(CC(F)(F)F)CCC2N(C)C(=O)c3c(O)c(=O)ccn3N12 (single isomer, unassigned) [Compound 125A] , please?
Key: 3.01

Exercise: Could you do the same for CN1C(=O)c2c(O)c(=O)ccn2N2C1CCCC2(C)c1cccc(F)c1 (single isomer, unassigned) [Compound 25B] , please?
Key: 1.85

Exercise: Could you do the same for CC1CC(c2ccccc2)N2C(C1)N(C)C(=O)c1c(O)c(=O)ccn12 (single isomer, unassigned) [Compound 6B] , please?
Key: 3.89
